- Target of assay: AhR (Homo sapiens, UniProt P35869)
- Construct: endogenous in cells
- Sequence (P35869 11-848): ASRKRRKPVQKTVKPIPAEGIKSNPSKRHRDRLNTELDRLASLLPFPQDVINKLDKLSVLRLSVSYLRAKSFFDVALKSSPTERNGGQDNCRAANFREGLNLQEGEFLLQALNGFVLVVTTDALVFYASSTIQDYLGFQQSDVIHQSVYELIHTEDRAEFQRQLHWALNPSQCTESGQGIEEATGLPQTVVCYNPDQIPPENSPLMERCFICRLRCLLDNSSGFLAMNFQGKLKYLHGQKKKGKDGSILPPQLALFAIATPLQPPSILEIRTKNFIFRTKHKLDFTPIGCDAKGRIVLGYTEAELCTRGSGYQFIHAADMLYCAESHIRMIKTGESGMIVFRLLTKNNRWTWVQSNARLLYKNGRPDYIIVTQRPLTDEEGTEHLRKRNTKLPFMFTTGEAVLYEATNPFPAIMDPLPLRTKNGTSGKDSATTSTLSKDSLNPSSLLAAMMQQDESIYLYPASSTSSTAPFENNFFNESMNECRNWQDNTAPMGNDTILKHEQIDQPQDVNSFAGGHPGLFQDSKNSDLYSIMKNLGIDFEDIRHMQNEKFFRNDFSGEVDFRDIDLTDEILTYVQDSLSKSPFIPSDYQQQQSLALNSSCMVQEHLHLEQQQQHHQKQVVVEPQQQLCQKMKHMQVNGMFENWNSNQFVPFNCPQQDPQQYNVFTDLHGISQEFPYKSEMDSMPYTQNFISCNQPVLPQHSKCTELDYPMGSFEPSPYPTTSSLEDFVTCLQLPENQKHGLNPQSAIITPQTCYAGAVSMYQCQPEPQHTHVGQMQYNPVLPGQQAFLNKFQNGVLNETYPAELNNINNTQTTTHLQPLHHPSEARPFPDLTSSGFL
- Assay notes: AhR reporter gene assay in AZ-AhR cells
- Experimental conditions: 24 h, luciferase reporter, read-out: EC50 activation of AhR activity
Measured property: pEC50
Hey, just a heads up that pEC50 is the negative log base 10 of the concentration in molar.

Form entry - test system: AhR (Homo sapiens, UniProt P35869); read-out: pEC50; compound: CN1CCN(c2ccc3nc(-c4c(N)c5c(F)cccc5[nH]c4=O)[nH]c3c2)CC1
6.22

###

- Target of assay: OATP1B3 (Homo sapiens, UniProt Q9NPD5)
- Construct: expressed in transfected cells; host or cells: HEK293 (HEK-OATP1B3)
- Sequence (Q9NPD5 whole entry): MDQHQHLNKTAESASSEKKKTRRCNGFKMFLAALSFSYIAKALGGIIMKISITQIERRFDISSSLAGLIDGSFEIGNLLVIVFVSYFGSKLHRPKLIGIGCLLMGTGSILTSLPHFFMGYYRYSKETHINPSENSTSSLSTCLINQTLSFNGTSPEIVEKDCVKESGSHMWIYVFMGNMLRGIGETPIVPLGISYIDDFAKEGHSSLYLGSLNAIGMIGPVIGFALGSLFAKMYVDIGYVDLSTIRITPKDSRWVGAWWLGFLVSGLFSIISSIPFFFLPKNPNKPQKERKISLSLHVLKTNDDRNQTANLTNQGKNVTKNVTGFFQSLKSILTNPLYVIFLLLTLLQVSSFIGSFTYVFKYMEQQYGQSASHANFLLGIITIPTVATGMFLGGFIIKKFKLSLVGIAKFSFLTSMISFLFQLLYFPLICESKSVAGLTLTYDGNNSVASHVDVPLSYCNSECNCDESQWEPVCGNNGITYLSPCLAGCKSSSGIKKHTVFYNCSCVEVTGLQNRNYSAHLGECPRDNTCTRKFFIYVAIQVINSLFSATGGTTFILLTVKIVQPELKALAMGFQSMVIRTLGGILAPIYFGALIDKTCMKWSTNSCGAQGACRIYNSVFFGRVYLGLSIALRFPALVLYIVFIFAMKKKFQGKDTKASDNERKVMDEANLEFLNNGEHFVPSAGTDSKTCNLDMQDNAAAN
- Assay notes: OATP inhibition assay (8-FcA flow cytometry uptake assay) in HEK-OATP1B3 cells
- Format: cell-based
- Experimental conditions: 8-fluorescein-cAMP uptake
- Experimental: For assessing human organic antion transporting polypeptides (OATPs = solute carriers of organic anions (SLCOs)) inhibition, the human embryonic kidney cell line HEK293 stably transfected with OATP1B1 (HEK-OATP1B1), OATP1B3 (HEK-OATP1B3), or the empty control vector (HEK293-VC G418) were used. […] Inhibition of OATP1B1 and OATP1B3 was analysed by flow cytometric uptake of the fluorescent 8-FcA as described previously using HEK-OATP1B1, OATP1B3, and HEK293-VC G418 (as a control). […]
pIC50: −log10 of the molar value.
Measured property: pIC50

Suppose we examine the compound CN1CCN(c2ccc3nc(-c4c(N)c5c(F)cccc5[nH]c4=O)[nH]c3c2)CC1 [Dovitinib] ; what pIC50 value has been reported?
< 4.00

###

- Target of assay: CYP3A4 (Homo sapiens, UniProt P08684)
- Sequence (P08684 whole entry): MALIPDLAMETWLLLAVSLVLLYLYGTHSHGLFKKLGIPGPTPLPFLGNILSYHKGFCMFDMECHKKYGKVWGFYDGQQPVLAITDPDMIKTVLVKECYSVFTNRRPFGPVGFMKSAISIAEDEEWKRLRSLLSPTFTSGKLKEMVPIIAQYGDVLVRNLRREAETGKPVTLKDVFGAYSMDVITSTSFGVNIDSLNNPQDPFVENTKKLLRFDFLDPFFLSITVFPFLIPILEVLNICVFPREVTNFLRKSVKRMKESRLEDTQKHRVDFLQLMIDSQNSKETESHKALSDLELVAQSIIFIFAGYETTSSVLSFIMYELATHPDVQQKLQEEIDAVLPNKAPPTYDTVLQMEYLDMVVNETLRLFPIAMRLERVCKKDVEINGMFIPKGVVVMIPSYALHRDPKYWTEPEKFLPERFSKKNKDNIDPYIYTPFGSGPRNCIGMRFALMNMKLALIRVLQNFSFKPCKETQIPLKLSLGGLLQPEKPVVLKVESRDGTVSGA
- Assay notes: in vitro
Measured property: inhibition at 20 µM

Entry under review: CN1CCN(c2ccc3nc(-c4c(N)c5c(F)cccc5[nH]c4=O)[nH]c3c2)CC1 . Reported inhibition at 20 µM?
~30%

###

- Target of assay: CYP2C19 (Homo sapiens)
- Sequence (P33261 whole entry): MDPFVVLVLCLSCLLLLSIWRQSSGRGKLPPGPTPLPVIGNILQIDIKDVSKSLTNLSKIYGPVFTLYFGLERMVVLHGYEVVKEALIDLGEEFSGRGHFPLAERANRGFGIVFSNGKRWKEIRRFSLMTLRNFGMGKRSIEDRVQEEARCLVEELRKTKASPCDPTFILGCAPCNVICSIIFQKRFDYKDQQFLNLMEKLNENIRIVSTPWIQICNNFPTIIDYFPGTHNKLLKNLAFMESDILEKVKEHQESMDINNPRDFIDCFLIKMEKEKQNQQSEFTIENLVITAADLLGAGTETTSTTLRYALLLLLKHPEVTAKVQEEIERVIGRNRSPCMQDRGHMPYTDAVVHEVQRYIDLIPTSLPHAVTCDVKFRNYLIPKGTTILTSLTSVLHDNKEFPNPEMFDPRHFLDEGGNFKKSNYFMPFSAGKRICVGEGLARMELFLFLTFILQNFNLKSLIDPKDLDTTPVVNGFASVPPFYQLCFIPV
Measured property: pIC50
Please express pIC50 as -log10 of the molar concentration.

I'm curious: which pIC50 was measured for COc1ccc2[nH]c([S+]([O-])Cc3ncc(C)c(OC)c3C)nc2c1 (stereo not shown) [omeprazole, Omeprazole] tested on CYP2C19 (Homo sapiens)?
6.10

Reference for the values: paper PMC4279137
